- TARGET_OF_ASSAY: T1, Homo sapiens factor Bb protein (human, UniProt P00751 260-764)
- T1 construct: Bought from CompTech (A155); also called complement factor Bb; human factor Bb
- TEST_PROTOCOL: SPR single cycle kinetics, IgG on Protein A chip, factor Bb analyte
List of kon values.
Please respond with the number in M⁻¹ s⁻¹ and leave the unit unwritten.

Use these answered entries as a reference point.
BINDER: VH1/Vκ4 (antibody, V domains shown) VH: EVQLVESGGGLVKPGGSLRLSCAASGFTFSNYAMSWVRQAPGKGLEWVATISNRGSYTYYPDSVKGRFTISRDNAKNSLYLQMSSLRSEDTALYYCARERPMDYWGQGTSVTVSS VL: DIQMTQSPSTLSASVGDRVTITCRASQDVGTAVAWYQQKPGQPPKLLIYWASTRHTGVPDRFSGSGSGTDFTLTISSLQAEDFAVYYCHQHSSNPLTFGQGTKLEIK
kon [M⁻¹ s⁻¹]: 451000
//
BINDER: VH0/Vκ0 (Chimeric) (antibody, V domains shown, also called chimeric antibody) VH: EVQLVESGGALVKPGGSLKLSCAASGFTFSNYAMSWVRQTPEKRLEWVATISNRGSYTYYPDSVKGRFTISRDNAKNTLYLQMSSLRSEDTALYYCARERPMDYWGQGTSVTVSS VL: DIVMTQSHKFMSTSVGDRVSITCKASQDVGTAVAWYQQKPGQSPKLLIYWASTRHTGVPDRFTGSGSGTDFTLTITNVQSEDLAVYFCHQHSSNPLTFGAGTKLELK
kon [M⁻¹ s⁻¹]: 585000

Task: Determine its reported kon: VH3/Vκ3 (antibody, V domains shown) VH: EVQLVESGGGLVKPGGSLRLSCAASGFTFSNYAMSWVRQAPGKGLEWVATISNRGSYTYYADSVKGRFTISRDNAKNSLYLQMNSLRAEDTALYYCARERPMDYWGQGTLVTVSS VL: DIQMTQSPSTLSASVGDRVTITCKASQDVGTAVAWYQQKPGQPPKLLIYWASTRHTGVPDRFSGSGSGTDFTLTISSLQAEDFAVYFCHQHSSNPLTFGQGTKLEIK
Output: 220000
